All values here come from paper PMC9321718.

system: E. coli; assay: Synergy of adjuvant-MCD with Lev-MCD, growth inhibition zones in agar; type: cell-based, Escherichia coli; settings: E. coli; CLev 0.15 μg/mL; ±15%
Field: FICI. Provide a value for each of the molecules that follow.
Simply state the number, no unit and no words.

INPUT: System E. coli. Read-out FICI. Item C=CCc1ccc2c(c1)OCO2 [Safrole] . Report value.
OUTPUT: 0.09

INPUT: System E. coli. Read-out FICI. Item CC1CCC(C(C)C)C(O)C1 (stereo not shown) [Menthol] . Report value.
OUTPUT: 0.15

INPUT: System E. coli. Read-out FICI. Item C=CCc1ccc(O)c(OC)c1 [Eugenol, 4-allyl-2-methoxyphenol] . Report value.
OUTPUT: 0.05

INPUT: System E. coli. Read-out FICI. Item C=CCc1cc(OC)c2c(c1OC)OCO2 [Apiol] . Report value.
OUTPUT: 0.20
